The compounds listed here are annotated with their pKi.
molecular target: human FAAH (Homo sapiens); construct: host or cells: COS-7 cells, transient transfection; 13,000 g membrane fraction solubilised in 1% Triton X-100; assay: Human FAAH biochemical inhibition assay (AMC arachidonoyl amide fluorescence); conditions: Table 1, human FAAH (no asterisk); read-out: Activity (Ki)
pKi: −log10 of the molar value.

compound	result
OB(O)c1ccc(OCc2cccc(Br)c2)c(Cl)c1	> 8.00
OB(O)c1ccc(-c2ccccc2)cc1F	> 8.00
OB(O)c1ccc2c3c(cccc13)CC2	6.00 to 8.00

# pKi (compound: O=C(NCCc1ccccc1)c1ccc(B(O)O)cc1 ) is > 8.00

# pKi (compound: CCOc1ccc2cc(B(O)O)ccc2c1 ) is > 8.00

# pKi (compound: OB(O)c1ccc(OC2CCCCO2)cc1 (centres unmarked) ) is 7.00 to 8.00

---

The compounds listed here are annotated with their pKi.
Biological target: human FAAH (Homo sapiens)
Construct: host or cells: COS-7 cells, transient transfection; 13,000 g membrane fraction solubilised in 1% Triton X-100
Sequence (O00519 1-579): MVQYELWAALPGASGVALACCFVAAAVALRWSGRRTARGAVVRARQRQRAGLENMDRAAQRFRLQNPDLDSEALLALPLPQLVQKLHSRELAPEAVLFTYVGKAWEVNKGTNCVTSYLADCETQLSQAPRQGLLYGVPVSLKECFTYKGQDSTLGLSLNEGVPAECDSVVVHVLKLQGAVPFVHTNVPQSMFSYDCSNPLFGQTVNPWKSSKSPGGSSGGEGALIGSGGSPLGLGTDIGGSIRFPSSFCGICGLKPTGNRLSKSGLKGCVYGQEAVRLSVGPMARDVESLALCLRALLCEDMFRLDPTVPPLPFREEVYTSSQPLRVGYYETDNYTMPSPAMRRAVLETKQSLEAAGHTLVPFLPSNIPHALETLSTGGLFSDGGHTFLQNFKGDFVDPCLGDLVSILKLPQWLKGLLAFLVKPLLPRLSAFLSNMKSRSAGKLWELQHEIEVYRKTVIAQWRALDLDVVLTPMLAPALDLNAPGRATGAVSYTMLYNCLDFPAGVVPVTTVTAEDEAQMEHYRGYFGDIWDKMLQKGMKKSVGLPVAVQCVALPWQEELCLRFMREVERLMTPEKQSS
Experiment: Human FAAH biochemical inhibition assay (AMC arachidonoyl amide fluorescence)
Settings: Table 2, human FAAH (no asterisk); read-out: Activity (Ki)
pKi: −log10 of the molar value.

Example results:
compound	pKi
OB(O)c1cccc(OCc2ccccc2)c1	7.00 to 8.00
COc1ccc(Oc2ccc(B3OC(C)(C)C(C)(C)O3)cc2)cc1OC	> 8.00
CN(C)c1cccc(-c2ccc(B(O)O)c(F)c2)c1	> 8.00

# pKi (compound: CC(Cc1ccccc1)Oc1ccc(B(O)O)c(F)c1 (stereo not drawn) ) is > 8.00

# pKi (compound: Cc1cccc(COc2ccc(B(O)O)cc2)c1F ) is 7.00 to 8.00

# pKi (compound: Cc1cc(B(O)O)cc(C)c1Oc1cccc(F)c1 ) is 7.00 to 8.00

---

The molecules listed here are annotated with their pKi.
Molecular target: human FAAH (Homo sapiens)
Construct: host or cells: COS-7 cells, transient transfection; 13,000 g membrane fraction solubilised in 1% Triton X-100
Sequence (O00519 1-579): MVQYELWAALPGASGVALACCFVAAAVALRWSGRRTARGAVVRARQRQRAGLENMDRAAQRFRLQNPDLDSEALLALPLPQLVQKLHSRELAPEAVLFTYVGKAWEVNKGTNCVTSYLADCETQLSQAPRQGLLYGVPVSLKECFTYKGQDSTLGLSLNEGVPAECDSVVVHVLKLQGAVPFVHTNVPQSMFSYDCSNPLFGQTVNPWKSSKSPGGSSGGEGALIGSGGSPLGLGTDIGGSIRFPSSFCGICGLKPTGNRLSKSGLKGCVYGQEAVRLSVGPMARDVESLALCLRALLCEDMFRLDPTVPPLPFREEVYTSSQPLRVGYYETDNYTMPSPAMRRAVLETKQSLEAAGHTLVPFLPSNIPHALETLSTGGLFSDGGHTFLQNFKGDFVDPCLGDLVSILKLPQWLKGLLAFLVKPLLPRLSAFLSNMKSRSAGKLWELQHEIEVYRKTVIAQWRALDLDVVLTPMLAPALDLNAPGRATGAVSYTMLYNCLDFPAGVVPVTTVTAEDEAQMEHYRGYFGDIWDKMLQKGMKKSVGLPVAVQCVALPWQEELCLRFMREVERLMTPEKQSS
Test: Human FAAH biochemical inhibition assay (AMC arachidonoyl amide fluorescence)
Conditions: Table 1, human FAAH (no asterisk); read-out: Activity (Ki)
pKi: −log10 of the molar value.

Example results:
item-smiles	pKi
O=Cc1ccc(B(O)O)c2ccccc12	6.00 to 8.00
CC(C)(C)c1ccc(B(O)O)cc1	7.00 to 8.00

# pKi (molecule: OB(O)c1cccc(I)c1 ) is 7.00 to 8.00

# pKi (molecule: Cn1ccc2ccc(B(O)O)cc21 ) is < 6.00

# pKi (molecule: OB(O)c1ccccc1Cl ) is 6.00 to 8.00
